- assay_comment: Approximate solubility by solvent aliquot addition, visual inspection
- Assay type: physicochemical
- run_parameters: organic solvent or mixture, thermodynamic from solid; DCM, ambient temperature; read-out: Solubility
readout_label: solubility (mg/mL)
Numbers only; they are read as mg/mL.

In: So what does the record say about solubility for CC(C)(c1ccc(OCc2ccnc(NS(C)(=O)=O)n2)cc1)c1cc(Cl)c(OCCCl)c(C#N)c1 ?
Out: 20

---

- assay_comment: Approximate solubility by solvent aliquot addition, visual inspection
- Type: physicochemical
- run_parameters: organic solvent or mixture, thermodynamic from solid; MEK, ambient temperature; read-out: Solubility
readout_label: solubility (µg/mL)
Numbers only; they are read as µg/mL.

In: So what does the record say about solubility for CC(C)(c1ccc(OCc2ccnc(NS(C)(=O)=O)n2)cc1)c1cc(Cl)c(OCCCl)c(C#N)c1 [Compound I] ?
Out: 6000
